Parameter: Potency (pM), IL-17-driven IL-6 production in HS27 cells. Scope: all listed entries.
# target or test system: cynomolgus monkey IL-17A (cynomolgus monkey, UniProt A0A2K5TTB0 24-155)
# Sequence (A0A2K5TTB0 entry or part of it): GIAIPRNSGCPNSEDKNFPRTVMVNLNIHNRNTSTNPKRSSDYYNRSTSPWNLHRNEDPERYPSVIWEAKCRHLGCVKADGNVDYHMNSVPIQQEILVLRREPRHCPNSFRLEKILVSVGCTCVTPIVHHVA
# method notes: cell-based or functional assay
observation type: Potency (pM), IL-17-driven IL-6 production in HS27 cells

>>> observed("IL17-h5C5.2 (antibody, V domains shown, IgG; constant regions not specified) VH: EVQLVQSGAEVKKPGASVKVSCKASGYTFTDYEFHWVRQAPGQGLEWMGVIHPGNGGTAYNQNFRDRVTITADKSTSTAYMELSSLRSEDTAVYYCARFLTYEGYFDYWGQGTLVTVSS VL: NIVMTQTPKFLLVSPGDRVTITCKASQSVSIDVGWFQQKPGQSPKLLIYHASNRYTGVPDRFTGSGYGTDFTFTVNTVQAEDLAVYFCQQDYSSPYTFGGGTKLELKR")
11
>>> observed("IL17-h5C5.20 (antibody, V domains shown, IgG; constant regions not specified) VH: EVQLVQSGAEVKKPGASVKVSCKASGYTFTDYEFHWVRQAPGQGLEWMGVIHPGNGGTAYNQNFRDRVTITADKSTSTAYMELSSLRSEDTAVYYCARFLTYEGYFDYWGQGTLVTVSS VL: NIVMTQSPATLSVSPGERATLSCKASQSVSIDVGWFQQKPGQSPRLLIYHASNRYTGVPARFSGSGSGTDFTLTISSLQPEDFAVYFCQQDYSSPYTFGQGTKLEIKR")
13
>>> observed("IL17-h5C5.11 (antibody, V domains shown, IgG; constant regions not specified) VH: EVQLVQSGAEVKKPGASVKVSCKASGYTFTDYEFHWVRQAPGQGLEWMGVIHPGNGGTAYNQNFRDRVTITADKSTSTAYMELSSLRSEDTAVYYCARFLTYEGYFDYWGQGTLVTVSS VL: EIVMTQSPATLSVSPGERATLSCKASQSVSIDVGWYQQKPGQAPRLLIYHASNRYTGIPARFSGSGSGTDFTLTISSLQPEDFAVYYCQQDYSSPYTFGQGTKLEIKR")
90
